# target_under_test: T1, HLA-A*0201 molecule expressed on human T2 cells (human)
# T1 construct: surface HLA-A2 detected with anti-HLA-A2-PE (clone REA517); also called HLA-A2
# protocol_description: T2 cell HLA-A*0201 binding assay, anti-HLA-A2-PE flow cytometry
endpoint_name: concentration of peptide that induces 20% of HLA-A2 expression (µM)
All answers are understood in µM, so give the number only.

KILDTVHSC [ANKRD30A-H2]; 25.3
AVIGIVAAV (also called ENT190_B1) [OR51E2-B1]; 0.7
ALYDVRTILL (also called UBEC2-H11; ENT168-HL) [UBE2C-H11]; 14.9

// field: concentration of peptide that induces 20% of HLA-A2 expression; key: KIIGIILAV (also called ENT176_B1; ENT_176-B1) [CDH17-B1] ; value = 0.2

// field: concentration of peptide that induces 20% of HLA-A2 expression; key: RLQQELMTL [UBE2C-H3] ; value = 1.06

// field: concentration of peptide that induces 20% of HLA-A2 expression; key: YLILEYATV (also called ENT199_B1) [AURKA-B1] ; value = 1.16

// field: concentration of peptide that induces 20% of HLA-A2 expression; key: ALYSEILTV (also called ENT169_B1; ENT_169-B1) [ANKRD30A-B1] ; value = 0.05

// field: concentration of peptide that induces 20% of HLA-A2 expression; key: ILLSIQSLL [UBE2C-H2] ; value = 3.27
